# Experimental System: UniProt Q9EQU3
pKd: −log10 of the molar value.
Property Measured: pKd

In [3]: df
Out[3]:
                                   compound  experimental_system  property_measured  experimental_result
0  COc1ccc2c3c(N)c4c(nc3n(CCCN(C)C)c2c1)CCCC4 [ETI60]       UniProt Q9EQU3                pKd                 2.82

====

# Experimental System: TLR9 (Mus musculus, UniProt Q9EQU3)
# Construct: endogenous in cells; host or cells: RAW 264.7
# Sequence (Q9EQU3 26-1032): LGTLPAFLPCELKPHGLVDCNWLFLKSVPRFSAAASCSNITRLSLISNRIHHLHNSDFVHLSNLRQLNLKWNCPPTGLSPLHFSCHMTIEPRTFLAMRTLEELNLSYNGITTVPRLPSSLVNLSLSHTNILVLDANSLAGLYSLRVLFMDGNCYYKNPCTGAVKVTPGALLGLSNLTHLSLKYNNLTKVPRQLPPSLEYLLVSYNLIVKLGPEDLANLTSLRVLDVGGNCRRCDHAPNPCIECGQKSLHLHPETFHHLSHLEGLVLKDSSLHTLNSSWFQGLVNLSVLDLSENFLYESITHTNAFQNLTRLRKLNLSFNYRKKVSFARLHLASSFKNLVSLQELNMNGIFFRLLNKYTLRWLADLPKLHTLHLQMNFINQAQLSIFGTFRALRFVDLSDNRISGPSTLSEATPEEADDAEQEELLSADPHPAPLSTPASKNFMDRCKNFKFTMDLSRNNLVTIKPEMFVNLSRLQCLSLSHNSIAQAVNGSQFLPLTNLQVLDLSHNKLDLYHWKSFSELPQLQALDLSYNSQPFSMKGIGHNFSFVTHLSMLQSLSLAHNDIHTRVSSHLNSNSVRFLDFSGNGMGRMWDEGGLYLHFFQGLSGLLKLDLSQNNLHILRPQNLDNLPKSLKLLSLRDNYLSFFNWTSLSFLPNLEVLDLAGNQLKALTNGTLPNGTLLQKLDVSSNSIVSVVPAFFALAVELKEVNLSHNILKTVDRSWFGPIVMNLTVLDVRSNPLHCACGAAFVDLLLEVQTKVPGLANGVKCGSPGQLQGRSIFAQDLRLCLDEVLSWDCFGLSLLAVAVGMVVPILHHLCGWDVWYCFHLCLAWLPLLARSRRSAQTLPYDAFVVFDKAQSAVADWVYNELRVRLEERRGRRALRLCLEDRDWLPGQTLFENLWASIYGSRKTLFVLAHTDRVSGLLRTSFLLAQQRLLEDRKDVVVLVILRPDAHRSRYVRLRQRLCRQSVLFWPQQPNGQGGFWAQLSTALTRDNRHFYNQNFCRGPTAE
# Test Name: TLR9 inhibition, TNF-α secretion (ELISA) in RAW 264.7
# Type: cell-based
# Condition Label: RAW 264.7 cell line; read-out: TLR9 IC50 (mTNFα)
Property Measured: IC50 (nM)

>>> df
                                   compound                  experimental_system  experimental_result
0  COc1ccc2c3c(N)c4c(nc3n(CCCN(C)C)c2c1)CCCC4 [ETI60]  TLR9 (Mus musculus, UniProt Q9EQU3)                  120
1  Cc1c(C)n(CCCN(C)C)c2nc3c(c(N)c12)CCCCC3 [ETI15]  TLR9 (Mus musculus, UniProt Q9EQU3)                  360

Data provenance: paper PMC12508057
